test: yeast display, Sf9 membrane polyspecificity reagent, FACS + sequencing; frameworks hold sequencing errors
PARAMETER: polyreactivity (PSR sort gate)

MACROMOLECULE SEQUENCE	ASSAY RESULT
QVQLVESAGGLVQAGGSLRLSCAASGFIFGKNAMGLYRQAPGKERELVAVITRSGSRTYYADSVKGRLTISRDNAKNTVYLQMNSLKPEDTAVYYCATDNVYAYDYWGLGTQVTVSS	high polyreactivity
QVQLVESWGGLVQAGGSLRLSCAASGSIFYRYAMGWYRQAPGKEREFVAAIRWRGGSTYYADSVKGRFTISRDNAKNTVYLQMNSLKPEDTAVYYCAAPTVQRYNYWGQGTQVTVSS	high polyreactivity

----------
assay: yeast display, Sf9 membrane polyspecificity reagent, FACS + sequencing; frameworks hold sequencing errors
PARAMETER: polyreactivity (PSR sort gate)

MACROMOLECULE SEQUENCE	PARAMETER	ASSAY RESULT
QVQLEDSGGGLLQAGGSLRLSCAASGRILYLYTMGWYRQAPGKERELVAAISRGGSTYYADSVKGRFTISRDNAKNTVYLQMNSLNPEDTAVYYCSADARGYQFNYWGQGTQVTVSS	polyreactivity (PSR sort gate)	high polyreactivity
QVQLVESGGGLVQAGGSLRLSCAASGNTFASYVMGWYRQAPGNERELVAAISWSGGSTYYADSVKGRFTISRDNAKNTVYLQMNSLKPEDTAVYYCNAKRNVRYGYWGQGTQVTVSS	polyreactivity (PSR sort gate)	high polyreactivity

----------
assay: yeast display, Sf9 membrane polyspecificity reagent, FACS + sequencing; frameworks hold sequencing errors

MACROMOLECULE SEQUENCE	polyreactivity (PSR sort gate)
QVQLVESGGGLVQAGGSLRLSCAASGRIFSVYTMGWYRQAPGKERELVAAISSGASTNYADSVKGRFTISRDNAKNTVYLQMNSLKPEDTAVYYCAKVLTNFNLYYYWGQGTQVTVSS	low polyreactivity
QVQLVESGGGLVQAGGSLRLSCAASGRTFAYNTMGWYRQAPGKEREFVAAIDSGDSTYYADSVKGRFTISRDNAKNTVYLQMNSLKPEDTAVYYCAARRYYGYDYWGQGTLVTVSS	high polyreactivity
QVQLVESGGGLVQAGGSLRLSCAASGRTFYSYVMGWYRQAPGKERELVAAINKTGGGTYYADSVKGRFTISRDNAKNTVYLQMNSLKPEDTAVYYCAAETGTGETRYYRYWDYYYWGQGTQVTVSS	high polyreactivity
QDQLVESGGGLVQAGGSLRLSCAASGFTLATYAMGWYSPAPGKEREWVAAITRSGGSTDDADSVKGRFTISRDIAKNTVYVQMNSLKPEDTAVYYCNAREVRYEYNYWGHGTQVTVSS	low polyreactivity
QVQLVESGGGIVQAGGSLRLSCDASGRIIGYYAMGWYRQAPGKERELVAAISRSGARTYYADSVKGRFTISRDNAKNTVYLQMNSLKPEDTAVYYCAAGPAPGHDSWGQGTQVTVSS	high polyreactivity
QVQLVESGGGLVQAGGSLRLSCAASGRTIIVYAMGWYRQAPGKERELVASITGIGDRTYYADSVKGRFTISRDNAKNTVYLQMNSLKPEDTAVYYCAKYGRTRFYYWGQGTQVTVSS	high polyreactivity
QVQLVESGGGLVQAGRSLRLSCASSGRIFSSYAKGWYRQAPGKERELVAAITSGGSTDYADSVKGRFTISRDNAKNTVYLQIYRLNPEDTAVYYCAKAFLPPWTYSPYYLFYYWGQGTQVTVSS	low polyreactivity
QVQLVESGGGLVQAGGSLRLSCAASGRIFGHYAMGWYRQAPGKERELVAAINWRGGSTYYADSVKGRFTISRDNAKNTVYLQMNSLKPEDTAVYYCAAANFRSYLSQTGPRAYYYWGQGTQVTVSS	low polyreactivity
QVHLVESGGGLVQAGGSLRLSCAASGFTFGVYAMGWYRQAPGKERELVAAISRRGTSTYYADSVKGRFTISRDTAKYTVYLQMNSLKPEDTAVYYCNARRYQVTVDHWGQGTQVTVSS	high polyreactivity
QVQLVESGGGLVQAGGSLRLSCAASGSIFILYMGWYRQAPGKERELVATISSGGSTNYADSVKGRFTISRDNAKNTVYLQMNSLKPEDTAVYYCNARGSERVDTYSLYDYWGQGTQVTVSS	low polyreactivity
QVQLVESGGGLVQAGGSLRLSCAASGFTFCKYTMGWYRQAPGKERELVAAITNSGTSTYYADSVKGRFTISRDNAKNTVYLQMNSLKPEDTAVYYCARDNEPDYYSYPYDYWGQGTQVTVSS	low polyreactivity
